Value source: patent US11931356B1

- Experimental system: UniProtKB P03126
- Sequence (P03126 8-158): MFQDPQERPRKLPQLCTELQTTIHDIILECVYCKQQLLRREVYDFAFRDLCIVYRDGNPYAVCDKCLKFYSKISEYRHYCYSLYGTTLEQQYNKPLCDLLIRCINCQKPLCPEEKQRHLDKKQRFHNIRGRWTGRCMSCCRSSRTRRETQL
- Format: binding
- Experimental parameters: whole protein mass spectrum
Measurement name: mass shift of the HPV-16 E6 protein upon exposure to compound (covalent bonding at Cys51)

molecule=C=CC(=O)N1CCN(c2nc(CCc3ccc(F)c(O)c3)nc3sc4c(c23)CCCC4)CC1 test_value="mass shift"
molecule=C=CC(=O)N1CCN(c2nc(CCc3cc(F)c(OC)c(F)c3)nc3sc4c(c23)CCCC4)CC1 test_value="mass shift"
molecule=C=CC(=O)N1CCN(c2nc(CCc3ccc(OC)c(OC)c3)nc3sc4c(c23)CCCC4)CC1 test_value="mass shift"
molecule=C=CC(=O)N1CCN(c2nc(C3CCCC3)nc3cccc(F)c23)CC1 test_value="mass shift"
molecule="C=CC(=O)N1CCN(C(=O)CN2CCc3sccc3C2c2cccc3ncccc23)CC1 (centres unmarked)" test_value="mass shift"
molecule="C=CC(=O)N1CCN(c2nc(CCc3cccc(OC)c3)nc3ccccc23)C(C)C1 (centres unmarked)" test_value="mass shift"
molecule=C=CC(=O)N1CCN(c2nc(CCc3cnc(OC)c(F)c3)nc3sc4c(c23)CCCC4)CC1 test_value="mass shift"
molecule=C=CC(=O)N1CCN(c2nc(CCc3ccc(OC)c(F)c3)nc3sc4c(c23)CCCC4)CC1 test_value="mass shift"
molecule=C=CC(=O)N1CCN(c2nc(CCc3ccc(O)c(F)c3)nc3sc4c(c23)CCCC4)CC1 test_value="mass shift"
molecule="C=CC(=O)N1CCN(C(=O)CN2CCc3sccc3C2c2cccc3ccccc23)CC1 (centres unmarked)" test_value="mass shift"
molecule=C=CC(=O)N1CCN(c2nc(CCc3ccc(F)c(OC)c3)nc3sc4c(c23)CCCC4)CC1 test_value="mass shift"
